Each recorded value in this set is attributed to patent US12492177B2.

- study_system: RARβ (Homo sapiens, UniProt P10826)
- Sequence (P10826 whole entry): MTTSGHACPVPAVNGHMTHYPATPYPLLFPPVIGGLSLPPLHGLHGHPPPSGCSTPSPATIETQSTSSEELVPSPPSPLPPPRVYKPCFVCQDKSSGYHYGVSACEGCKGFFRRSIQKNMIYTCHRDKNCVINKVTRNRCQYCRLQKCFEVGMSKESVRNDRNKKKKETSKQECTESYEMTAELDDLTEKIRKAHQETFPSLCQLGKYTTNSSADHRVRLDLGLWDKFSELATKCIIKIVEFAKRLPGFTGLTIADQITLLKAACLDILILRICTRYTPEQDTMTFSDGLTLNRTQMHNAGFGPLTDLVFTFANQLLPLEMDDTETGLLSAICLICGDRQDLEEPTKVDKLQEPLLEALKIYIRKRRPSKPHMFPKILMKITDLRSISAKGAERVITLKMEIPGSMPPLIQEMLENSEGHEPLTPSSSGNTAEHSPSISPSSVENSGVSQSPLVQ
- test_description: RARβ transcriptional assay, antagonist activity
- experimental_parameters: in the presence of 0.5 nM TTNPB
IC50 by entry:

Worked cases, IC50 given:
{"columns": ["molecule", "observed"],
 "data": [
  ["CC(C)C1=CC(C)(C)Oc2c(Br)cc(C(=O)Nc3ccc(C(=O)O)c(F)c3)cc21 [Compound 33]", "> 1 µM"],
  ["CC1(C)CCC(C2=CC(C)(C)Oc3c(Br)cc(C(=O)Nc4ccc(C(=O)O)c(F)c4)cc32)CC1 [Compound 38]", "0.011 to 0.1 µM"],
  ["CC[C@H]1CC[C@H](C2=CC(C)(C)Oc3c(Br)cc(C(=O)Nc4ccc(C(=O)O)c(F)c4)cc32)CC1 [Compound 39]", "0.101 to 1 µM"],
  ["CC1CCC(C2=CC(C)(C)Oc3c(Br)cc(C(=O)Nc4ccc(C(=O)O)c(F)c4)cc32)CC1 (stereo not drawn) [Compound 35]", "0.011 to 0.1 µM"],
  ["CC[C@H]1CC[C@@H](C2=CC(C)(C)Oc3c(Br)cc(C(=O)Nc4ccc(C(=O)O)c(F)c4)cc32)CC1 [Compound 40]", "> 1 µM"],
  ["CC1(C)C=C([C@H]2CC[C@@H](C)CC2)c2cc(C(=O)Nc3ccc(C(=O)O)c(F)c3)cc(Br)c2O1 [Compound 36]", "> 1 µM"]
]}

Return reported IC50; argument: CN1CCC(C2=CC(C)(C)Oc3c(Br)cc(C(=O)Nc4ccc(C(=O)O)c(F)c4)cc32)CC1 [Compound 32] > 1 µM

Form field: reported IC50 of CC1(C)C=C(C2CCOCC2)c2cc(C(=O)Nc3ccc(C(=O)O)c(F)c3)cc(Br)c2O1 [Compound 34] > 1 µM

I am curious: what IC50 value has been reported for CC#CC1=CC(C)(C)Oc2c(Br)cc(C(=O)Nc3ccc(C(=O)O)c(F)c3)cc21 [Compound 37] ? > 1 µM

---

- study_system: RARγ (Homo sapiens, UniProt P13631)
- Sequence (P13631 whole entry): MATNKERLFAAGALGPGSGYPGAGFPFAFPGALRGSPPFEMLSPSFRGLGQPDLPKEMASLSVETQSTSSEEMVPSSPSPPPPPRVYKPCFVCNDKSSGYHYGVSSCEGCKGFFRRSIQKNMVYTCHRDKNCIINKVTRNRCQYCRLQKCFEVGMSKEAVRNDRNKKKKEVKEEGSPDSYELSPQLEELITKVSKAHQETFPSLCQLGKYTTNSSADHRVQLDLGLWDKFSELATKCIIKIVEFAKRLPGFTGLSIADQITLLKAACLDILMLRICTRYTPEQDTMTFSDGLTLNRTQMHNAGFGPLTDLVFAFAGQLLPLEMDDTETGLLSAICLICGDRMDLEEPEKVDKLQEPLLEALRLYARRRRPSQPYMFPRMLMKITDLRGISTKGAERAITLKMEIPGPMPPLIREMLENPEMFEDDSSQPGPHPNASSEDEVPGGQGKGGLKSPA
- test_description: RARγ transcriptional assay, antagonist activity
- experimental_parameters: in the presence of 0.5 nM TTNPB
pIC50: −log10 of the molar value.
parameter_measured: pIC50

Recorded pIC50 for CC1(C)C=C([C@H]2CC[C@@H](C)CC2)c2cc(C(=O)Nc3ccc(C(=O)O)c(F)c3)cc(Br)c2O1 , please? < 6.00

Consider the compound CC1(C)CCC(C2=CC(C)(C)Oc3c(Br)cc(C(=O)Nc4ccc(C(=O)O)c(F)c4)cc32)CC1 and give its measured pIC50. 7.00 to 7.96

Could you tell me which pIC50 is on file for CC[C@H]1CC[C@@H](C2=CC(C)(C)Oc3c(Br)cc(C(=O)Nc4ccc(C(=O)O)c(F)c4)cc32)CC1 ? < 6.00

What pIC50 value was documented for this compound, CC1(C)C=C(C2CCOCC2)c2cc(C(=O)Nc3ccc(C(=O)O)c(F)c3)cc(Br)c2O1 ? < 6.00

---

- study_system: RARβ (Homo sapiens)
- test_description: RARβ transcriptional assay, agonist activity
- experimental_parameters: agonist mode
- Text: Transcriptional assays for RARα, RARβ and RARγ, which measure the antagonist or agonist like activity of the compounds are described in WO 2017/201200 A1 (Thacher, Crowe, Tao and Raheja, Therapeutic compositions containing RAR-alpha antagonists) published on Nov. 23, 2017, which is also incorporated herein by reference. […]
parameter_measured: EC50

Consider the worked cases shown below.
{"columns": ["molecule", "EC50"],
 "data": [
  ["CN1CCC(C2=CC(C)(C)Oc3c(Br)cc(C(=O)Nc4ccc(C(=O)O)c(F)c4)cc32)CC1", "> 1 µM"],
  ["CC1CCC(C2=CC(C)(C)Oc3c(Br)cc(C(=O)Nc4ccc(C(=O)O)c(F)c4)cc32)CC1 (stereo not drawn)", "> 1 µM"],
  ["CC1(C)C=C(C2CCOCC2)c2cc(C(=O)Nc3ccc(C(=O)O)c(F)c3)cc(Br)c2O1", "0.101 to 1 µM"],
  ["CC(C)C1=CC(C)(C)Oc2c(Br)cc(C(=O)Nc3ccc(C(=O)O)c(F)c3)cc21", "0.011 to 0.1 µM"],
  ["CC1(C)CCC(C2=CC(C)(C)Oc3c(Br)cc(C(=O)Nc4ccc(C(=O)O)c(F)c4)cc32)CC1", "> 1 µM"]
]}

Item under review: CC[C@H]1CC[C@@H](C2=CC(C)(C)Oc3c(Br)cc(C(=O)Nc4ccc(C(=O)O)c(F)c4)cc32)CC1 . Reported EC50? > 1 µM

GET /values?readout=EC50&item= CC1(C)C=C([C@H]2CC[C@@H](C)CC2)c2cc(C(=O)Nc3ccc(C(=O)O)c(F)c3)cc(Br)c2O1 > 1 µM

Which EC50 value belongs to CC#CC1=CC(C)(C)Oc2c(Br)cc(C(=O)Nc3ccc(C(=O)O)c(F)c3)cc21 ? 0.101 to 1 µM

Would you mind telling me what EC50 value was observed for CC[C@H]1CC[C@H](C2=CC(C)(C)Oc3c(Br)cc(C(=O)Nc4ccc(C(=O)O)c(F)c4)cc32)CC1 ? > 1 µM

---

- study_system: RARα (Homo sapiens, UniProt P10276)
- Sequence (P10276 whole entry): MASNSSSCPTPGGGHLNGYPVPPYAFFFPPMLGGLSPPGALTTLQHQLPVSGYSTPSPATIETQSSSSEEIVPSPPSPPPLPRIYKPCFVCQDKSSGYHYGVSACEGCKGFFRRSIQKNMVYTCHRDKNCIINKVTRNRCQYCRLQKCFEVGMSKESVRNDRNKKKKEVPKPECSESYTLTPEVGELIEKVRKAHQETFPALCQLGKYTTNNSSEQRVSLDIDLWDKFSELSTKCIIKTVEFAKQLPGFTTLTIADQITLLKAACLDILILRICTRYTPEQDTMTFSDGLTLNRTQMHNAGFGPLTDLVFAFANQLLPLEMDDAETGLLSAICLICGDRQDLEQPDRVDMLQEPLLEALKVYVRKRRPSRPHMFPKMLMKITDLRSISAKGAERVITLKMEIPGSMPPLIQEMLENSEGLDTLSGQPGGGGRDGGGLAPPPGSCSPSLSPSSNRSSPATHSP
- test_description: RARα transcriptional assay, antagonist activity
- experimental_parameters: in the presence of 0.5 nM TTNPB
pIC50: −log10 of the molar value.
Below, each of the molecules is paired with its reported pIC50 value.

{"columns": ["molecule", "observed"],
 "data": [
  ["CC(C)C1=CC(C)(C)Oc2c(Br)cc(C(=O)Nc3ccc(C(=O)O)c(F)c3)cc21 [Compound 33]", "< 6.00"],
  ["CC1(C)C=C(C2CCOCC2)c2cc(C(=O)Nc3ccc(C(=O)O)c(F)c3)cc(Br)c2O1 [Compound 34]", "7.00 to 7.96"]
]}

I would be grateful if you could share the reported pIC50 for CC[C@H]1CC[C@@H](C2=CC(C)(C)Oc3c(Br)cc(C(=O)Nc4ccc(C(=O)O)c(F)c4)cc32)CC1 [Compound 40] . > 9.00

Suppose we examine the molecule CC#CC1=CC(C)(C)Oc2c(Br)cc(C(=O)Nc3ccc(C(=O)O)c(F)c3)cc21 [Compound 37] ; what pIC50 value has been reported? 8.00 to 9.00

---

Collected IC50 values appear next to each entry.
- study_system: RARα (Homo sapiens, UniProt P10276)
- test_description: RARα transcriptional assay, antagonist activity
- experimental_parameters: in the presence of 0.5 nM TTNPB

Record excerpt, results attached:
{"columns": ["compound", "IC50"],
 "data": [
  ["CC1(C)CCC(C2=CC(C)(C)Oc3c(Br)cc(C(=O)Nc4ccc(C(=O)O)c(F)c4)cc32)CC1", "< 1 nM"],
  ["CC[C@H]1CC[C@H](C2=CC(C)(C)Oc3c(Br)cc(C(=O)Nc4ccc(C(=O)O)c(F)c4)cc32)CC1", "< 1 nM"],
  ["CC1CCC(C2=CC(C)(C)Oc3c(Br)cc(C(=O)Nc4ccc(C(=O)O)c(F)c4)cc32)CC1 (centres unmarked)", "< 1 nM"],
  ["CC1(C)C=C([C@H]2CC[C@@H](C)CC2)c2cc(C(=O)Nc3ccc(C(=O)O)c(F)c3)cc(Br)c2O1", "< 1 nM"]
]}

Can you look up IC50 on RARα (Homo sapiens, UniProt P10276) for CN1CCC(C2=CC(C)(C)Oc3c(Br)cc(C(=O)Nc4ccc(C(=O)O)c(F)c4)cc32)CC1 ? > 1000 nM
